Structures can show the parent of a compound that is named as a salt.
measured attribute: melting point

# molecule, melting point
records = [
    ("CCC1(CC)C[C@@H](OCc2ccccc2)CN1C(=O)c1cnn2c1N[C@@H](c1ccccc1)CC2(C)C [Example 1103]", "118 to 120 °C"),
    ("CCCC(CC)(CC)NC(=O)c1c(C)nn2c1NC(c1ccccc1F)CC2(C)C (stereo not shown) (as salt: HCl) [Example 957]", "181 to 182 °C"),
    ("Cc1nn2c(c1C(=O)OC1C(C)(C)[C@H]3CC[C@]1(C)C3)NC(c1ccccc1)CC2(C)C (stereo partly shown) (as salt: HCl) [Example 1141]", "149 to 150 °C"),
    ("CCC1(NC(=O)c2cnn3c2NC(c2ccccc2)CC3(C)C)CCCC1 (stereo not shown) (as salt: HCl) [Example 588]", "140 to 142 °C"),
    ("C=Cc1ccc(C(CC)(CC)NC(=O)c2cnn3c2NC(c2ccccc2)CC3(C)C)cc1 (stereo not shown) [Example 645]", "155 to 156 °C"),
    ("CCC1(NC(=O)c2cnn3c2NC(c2ccccc2)CC3(C)C)CCSCC1 (stereo not shown) [Example 575]", "97 to 98 °C"),
]

Recorded melting point of CCC(CC)(NC(=O)c1cnn2c1NC(c1ccccc1C)CC2(C)C)c1ccc(Cl)cc1 (stereo not shown) [Example 697] , please. 143 to 145 °C

---

Structures can show the parent of a compound that is named as a salt.
Catalogue of melting point values

# compound, melting point
rows = [
    ("CCCC(CC)(CC)NC(=O)c1c(C)nn2c1NC(c1ccccc1)CC2(C)C (stereo not shown) (as salt: HCl)", "176 to 177 °C"),
    ("CCCCOC(=O)c1ccc(C(CC)(CC)NC(=O)c2cnn3c2NC(c2ccccc2)CC3(C)C)cc1 (stereo not shown)", "139 to 140 °C"),
    ("CCC(CC)(NC(=O)c1c(C)nn2c1N[C@@H](c1ccccc1)CC2(C)C)c1ccc(C(=O)O)cc1", "234 to 236 °C"),
    ("CCC(CC)(NC(=O)c1c(C)nn2c1NC(c1cccc(C)c1)CC2(C)C)c1ccc(C)cc1 (stereo not shown) (as salt: HCl)", "120 to 123 °C"),
    ("NC(=O)c1cnn2c1N[C@H](c1ccccc1)C[C@@H]2C(F)(F)F (stereo in doubt)", "277 to 278 °C"),
    ("O=C(O)c1cnn2c1NC(c1ccco1)CC2C(F)(F)F (stereo not shown)", "156 to 157 °C"),
]

Lab note: next compound to report on.
Which melting point value belongs to O=C(CNC(=O)c1cnn2c1N[C@H](c1ccccc1)C[C@@H]2C(F)(F)F)c1ccccc1Cl (stereo in doubt) ? 154 to 155 °C

---

Where a name gives a salt, the structure may show the parent alone.
measured attribute: melting point

Field: example entries. Status: answers known.
# molecule, measured attribute, value observed
records = [
    ("O=C(NCC(=O)c1cccc2ccccc12)c1cnn2c1N[C@H](c1ccccc1)C[C@@H]2C(F)(F)F (stereo in doubt)", "melting point", "141 to 142 °C"),
    ("O=C(O)c1cnn2c1NC(c1ccc3ccccc3c1)CC2C(F)(F)F (stereo not shown)", "melting point", "143 to 145 °C"),
    ("Cc1nn2c(c1C(=O)O)NC(c1cccs1)CC2(C)C (stereo not shown)", "melting point", "186 to 187 °C"),
    ("O=C(NC1(C(=O)N2CCOCC2)CCCCC1)c1cnn2c1N[C@H](c1ccccc1)C[C@@H]2C(F)(F)F", "melting point", "290 to 291 °C"),
    ("Cc1ccc(C2CC(C)(C)n3nc(C)c(C(=O)O)c3N2)cc1 (stereo not shown)", "melting point", "181 to 182 °C"),
]

For the molecule CCC(CC)(NC(=O)c1cnn2c1NC(c1ccccn1)CC2(C)C)c1ccc(F)cc1 (stereo not shown) , what melting point is on record? 167 to 169 °C

Entry CCC(CC)(NC(=O)c1c(C)nn2c1N[C@@H](c1ccccc1)CC2(C)C)c1ccc(Cl)c(C)c1 (as salt: HCl) please 150 to 151 °C

One more molecule: CCC1(CC)C[C@@H](O)CN1C(=O)c1c(C)nn2c1N[C@@H](c1ccccc1)CC2(C)C [Example 1097] 162 to 164 °C

Quick one: CCC(CC)(NC(=O)c1c(C)nn2c1NC(c1ccccc1F)CC2(C)C)c1ccc(N(C)C)cc1 (stereo not shown) (as salt: HCl) 152 to 153 °C

Try Cc1nn2c(c1C(=O)NC13CC4CC(CC(C4)C1)C3)NC(c1ccccc1)CC2C(F)(F)F (stereo not shown) next. 162 to 163 °C

Now this one: CCC(CC)(NC(=O)c1c(C)nn2c1NC(c1ccccc1F)CC2(C)C)c1ccc(C)cc1 (stereo not shown) (as salt: HCl) [Example 831] 152 to 153 °C

Another: CCC(CC)(NC(=O)c1cnn2c1NC(c1ccccc1)CC2(C)C)c1ccc(CCC(=O)OC)cc1 (stereo not shown) 147 to 148 °C

Now give it for CCOC(=O)COc1ccc(C(CC)(CC)NC(=O)c2cnn3c2NC(c2ccccc2)CC3(C)C)cc1 (stereo not shown) too. 178 to 179 °C
